# Tested on: P388 leukemia ip, CD2F1 mice, survival T/C
# Assay Text: NCI In Vivo Anticancer Drug Screen. Data for tumor model P388 Leukemia (intraperitoneal) in CD2F1 (CDF1) mice
# Assay Context: endpoint: median survival time; dose: 200.0 mg/kg/injection; schedule: Q04DX002 (ip); vehicle: saline with Tween-80; higher = longer survival
Toxic doses and inconclusive results are not listed.
Recorded T/C by entry

- Molecule: "Clc1ccc2c(ccc3cccnc32)n1"
  T/C: "94 % of control"
- Molecule: "CC1(C)CNC(=O)C2=C(O1)C(=O)OC2"
  T/C: "100 % of control"
- Molecule: "O=C1OC(c2ccccc2)c2cccnc21 (centres undefined)"
  T/C: "92 % of control"
- Molecule: "C=C(C)c1c2ccccc2cc2cccc(Sc3ccc(C(C)(C)C)cc3)c12"
  T/C: "96 % of control"
- Molecule: "N#CC(C(=O)C(=O)Nc1ccc(Cl)cc1)c1c(Cl)cccc1Cl (centres undefined)"
  T/C: "108 % of control"
- Molecule: "CC12CC(CS(=O)C1)c1ccccc1N2 (centres undefined)"
  T/C: "101 % of control"
- Molecule: "COc1ccc2[nH]c3cc4ccncc4cc3c2c1"
  T/C: "97 % of control"
- Molecule: "COc1cc(CC2C(=O)OCC2Cc2ccc3c(c2)OCO3)cc(OC)c1OC (centres undefined)"
  T/C: "100 % of control"
- Molecule: "CS(=O)(=O)N1C=Cc2ccccc2C=C1"
  T/C: "90 % of control"
- Molecule: "O=C1CSC(c2c(Cl)cccc2[N+](=O)[O-])N1c1nncs1 (centres undefined)"
  T/C: "87 % of control"
- Molecule: "COc1ccc(N=C(C2=C(O)c3ccccc3C2=O)c2ccccc2)cc1"
  T/C: "101 % of control"
- Molecule: "COC(=O)C(C)NC(=O)C(C)NC(=O)c1ccc(OC)cc1 (centres undefined)"
  T/C: "99 % of control"
- Molecule: "C=CCC1CCC(=O)NC1=O (centres undefined)"
  T/C: "100 % of control"
- Molecule: "COc1ccc(C(C#N)C(=O)CCC(=O)C(C#N)c2ccc(OC)c(OC)c2)cc1OC (centres undefined)"
  T/C: "98 % of control"
